Target or system S. pyogenes; recorded quantity MIC.

compound	MIC [µM]
COc1ccc2c(Cc3ccc(CI)cc3)c3[n+](cc2c1OC)CCc1cc2c(cc1-3)OCO2 [Compound 8, 13-(4-Iodomethylbenzyl)Berberine]	12.5
COc1ccc(C(=O)/C=C/c2ccc(Cc3c4[n+](cc5c(OC)c(OC)ccc35)CCc3cc5c(cc3-4)OCO5)cc2)c(O)c1 [Compound 25]	6.25
COc1ccc2c(Cc3ccc(/C=C/C(=O)NCCc4ccc(S(N)(=O)=O)cc4)cc3)c3[n+](cc2c1OC)CCc1cc2c(cc1-3)OCO2 [Compound 23]	6.25
COc1cc(C(=O)Cc2c3[n+](cc4c(OC)c(OC)ccc24)CCc2cc4c(cc2-3)OCO4)cc(OC)c1OC(=O)c1ccccc1 [Compound 16]	6.25
COc1ccc2c(=O)cc(-c3ccc(Cc4c5[n+](cc6c(OC)c(OC)ccc46)CCc4cc6c(cc4-5)OCO6)cc3)oc2c1 [Compound 26]	25
COc1ccc2c(CC(=O)c3ccc(OC(=O)c4ccccc4)cc3OC(=O)c3ccccc3)c3[n+](cc2c1OC)CCc1cc2c(cc1-3)OCO2 [Compound 17]	25

---

- System: V. alginolyticus
- test method notes: Macromolecule synthesis inhibition assay by fluorescent microscopy (morphological changes)
- assay context: 4 × MIC, 2 h, 37 °C
recorded endpoint: Observed Morphology: cells connected, V. alginolyticus

smiles record	tested on	value measured
CC1(C)S[C@@H]2[C@H](NC(=O)[C@H](N)c3ccc(O)cc3)C(=O)N2[C@H]1C(=O)O	V. alginolyticus	1–2 cells connected
COc1cc(C(=O)Cc2c3[n+](cc4c(OC)c(OC)ccc24)CCc2cc4c(cc2-3)OCO4)cc(OC)c1OC(=O)c1ccccc1	V. alginolyticus	2–4 cells connected
CN(C)[C@@H]1C(O)=C(C(N)=O)C(=O)[C@@]2(O)C(O)=C3C(=O)c4c(O)cccc4[C@@](C)(O)[C@H]3C[C@@H]12	V. alginolyticus	1–3 cells connected

---

- System: V. alginolyticus
- test method notes: Macromolecule synthesis inhibition assay by fluorescent microscopy (morphological changes)
- assay context: 4 × MIC, 2 h, 37 °C
// values below are reported Observed Morphology: cells connected, V. alginolyticus
recorded endpoint: Observed Morphology: cells connected, V. alginolyticus

molecule	value measured
CO[C@H]1/C=C/O[C@@]2(C)Oc3c(C)c(O)c4c(O)c(c(/C=N/N5CCN(C)CC5)c(O)c4c3C2=O)NC(=O)/C(C)=C\C=C\[C@H](C)[C@H](O)[C@@H](C)[C@@H](O)[C@@H](C)[C@H](OC(C)=O)[C@@H]1C	1–2 cells connected
CO/N=C1\CN(c2nc3c(cc2F)c(=O)c(C(=O)O)cn3C2CC2)CC1CN (stereo not drawn) [Gemifloxacin, reference compound]	1–2 cells connected
COc1ccc(C(=O)/C=C/c2ccc(Cc3c4[n+](cc5c(OC)c(OC)ccc35)CCc3cc5c(cc3-4)OCO5)cc2)c(O)c1	1–2 cells connected

---

MIC tested on B. cereus: recorded values
recorded endpoint: MIC (µM)

compound	tested on	recorded endpoint	value measured
COc1ccc2c(=O)cc(-c3ccc(Cc4c5[n+](cc6c(OC)c(OC)ccc46)CCc4cc6c(cc4-5)OCO6)cc3)oc2c1 [Compound 26]	B. cereus	MIC	50
COc1cc(C(=O)Cc2c3[n+](cc4c(OC)c(OC)ccc24)CCc2cc4c(cc2-3)OCO4)cc(OC)c1OC(=O)c1ccccc1 [Compound 16]	B. cereus	MIC	12.5
COc1ccc2c(Cc3ccc(/C=C/C(=O)NCCc4ccc(S(N)(=O)=O)cc4)cc3)c3[n+](cc2c1OC)CCc1cc2c(cc1-3)OCO2 [Compound 23]	B. cereus	MIC	12.5
COc1ccc2c(CC(=O)c3ccc(OC(=O)c4ccccc4)cc3OC(=O)c3ccccc3)c3[n+](cc2c1OC)CCc1cc2c(cc1-3)OCO2 [Compound 17]	B. cereus	MIC	25
COc1ccc(C(=O)/C=C/c2ccc(Cc3c4[n+](cc5c(OC)c(OC)ccc35)CCc3cc5c(cc3-4)OCO5)cc2)c(O)c1 [Compound 25]	B. cereus	MIC	6.25
COc1ccc2c(Cc3ccc(CI)cc3)c3[n+](cc2c1OC)CCc1cc2c(cc1-3)OCO2 [Compound 8, 13-(4-Iodomethylbenzyl)Berberine]	B. cereus	MIC	12.5

---

Parameter Observed Morphology: cell elongation/enlargement, B. subtilis: see the listing below.
- System: B. subtilis
- test method notes: Macromolecule synthesis inhibition assay by fluorescent microscopy (morphological changes)
- assay context: 4 × MIC, 2 h, 37 °C
recorded endpoint: Observed Morphology: cell elongation/enlargement, B. subtilis

molecule	value measured
CN(C)[C@@H]1C(O)=C(C(N)=O)C(=O)[C@@]2(O)C(O)=C3C(=O)c4c(O)cccc4[C@@](C)(O)[C@H]3C[C@@H]12 [Tetracycline]	1.5–3 times compared to control
CO[C@H]1/C=C/O[C@@]2(C)Oc3c(C)c(O)c4c(O)c(c(/C=N/N5CCN(C)CC5)c(O)c4c3C2=O)NC(=O)/C(C)=C\C=C\[C@H](C)[C@H](O)[C@@H](C)[C@@H](O)[C@@H](C)[C@H](OC(C)=O)[C@@H]1C [Rifampicin]	2.5 times compared to control
CC1(C)S[C@@H]2[C@H](NC(=O)[C@H](N)c3ccc(O)cc3)C(=O)N2[C@H]1C(=O)O [Amoxicillin]	1.5 times compared to control
COc1ccc(C(=O)/C=C/c2ccc(Cc3c4[n+](cc5c(OC)c(OC)ccc35)CCc3cc5c(cc3-4)OCO5)cc2)c(O)c1 [Compound 25]	1–2.5 times compared to control
COc1cc(C(=O)Cc2c3[n+](cc4c(OC)c(OC)ccc24)CCc2cc4c(cc2-3)OCO4)cc(OC)c1OC(=O)c1ccccc1 [Compound 16]	1.5–6 times compared to control

---

In this section, each of the compounds is paired with its reported MIC.
- Tested on: M. smegmatis
- test method notes: microbe, parasite or virus in culture
- Format: cell-based, Mycobacterium smegmatis (mc2155, ATCC 700084)
- assay context: Mycolicibacterium smegmatis, 72 h, read-out: Minimal Inhibitory Concentration (MIC) M. smegmatis

smiles record	MIC (µM)
COc1ccc2c(Cc3ccc(/C=C/C(=O)NCCc4ccc(S(N)(=O)=O)cc4)cc3)c3[n+](cc2c1OC)CCc1cc2c(cc1-3)OCO2	25
COc1ccc2c(CC(=O)c3ccc(OC(=O)c4ccccc4)cc3OC(=O)c3ccccc3)c3[n+](cc2c1OC)CCc1cc2c(cc1-3)OCO2	100
COc1ccc(C(=O)/C=C/c2ccc(Cc3c4[n+](cc5c(OC)c(OC)ccc35)CCc3cc5c(cc3-4)OCO5)cc2)c(O)c1	25
COc1ccc2c(Cc3ccc(C=O)cc3)c3[n+](cc2c1OC)CCc1cc2c(cc1-3)OCO2	100
COc1cc(C(=O)Cc2c3[n+](cc4c(OC)c(OC)ccc24)CCc2cc4c(cc2-3)OCO4)cc(OC)c1OC(=O)c1ccccc1	50
COc1ccc2c(Cc3ccc(CN)cc3)c3[n+](cc2c1OC)CCc1cc2c(cc1-3)OCO2	50

---

- Tested on: Caco2 (human intestinal epithelial cells)
- test method notes: Cytotoxic assay on human cells (resazurin)
- Type: cell-based
- assay context: IC50 on Caco2 divided by MIC on S. aureus
Catalogue of compounds with associated therapeutic index Caco2
recorded endpoint: therapeutic index Caco2

compound	value measured
COc1ccc(C(=O)/C=C/c2ccc(Cc3c4[n+](cc5c(OC)c(OC)ccc35)CCc3cc5c(cc3-4)OCO5)cc2)c(O)c1 [Compound 25]	3.37
COc1ccc2c(Cc3ccc(/C=C/C(=O)NCCc4ccc(S(N)(=O)=O)cc4)cc3)c3[n+](cc2c1OC)CCc1cc2c(cc1-3)OCO2 [Compound 23]	12.40
COc1ccc2c(=O)cc(-c3ccc(Cc4c5[n+](cc6c(OC)c(OC)ccc46)CCc4cc6c(cc4-5)OCO6)cc3)oc2c1 [Compound 26]	20.24
COc1ccc2c(Cc3ccc(CI)cc3)c3[n+](cc2c1OC)CCc1cc2c(cc1-3)OCO2 [Compound 8, 13-(4-Iodomethylbenzyl)Berberine]	11.18
COc1ccc2c(CC(=O)c3ccc(OC(=O)c4ccccc4)cc3OC(=O)c3ccccc3)c3[n+](cc2c1OC)CCc1cc2c(cc1-3)OCO2 [Compound 17]	8.54
COc1cc(C(=O)Cc2c3[n+](cc4c(OC)c(OC)ccc24)CCc2cc4c(cc2-3)OCO4)cc(OC)c1OC(=O)c1ccccc1 [Compound 16]	10.36

---

- System: M. smegmatis
- test method notes: microbe, parasite or virus in culture
- Format: cell-based, Mycobacterium smegmatis (mc2155, ATCC 700084)
- assay context: Mycolicibacterium smegmatis, 72 h, read-out: Minimal Inhibitory Concentration (MIC) M. smegmatis

compound	output unit	operator	MIC
COc1ccc2c(Cc3ccc(C#N)cc3)c3[n+](cc2c1OC)CCc1cc2c(cc1-3)OCO2 [Compound 7, 13-(4-Cyanobenzyl)Berberine]	µM	=	100
COc1ccc2c(Cc3ccc(C=NO)cc3)c3[n+](cc2c1OC)CCc1cc2c(cc1-3)OCO2 [Compound 21]	µM	=	50
COc1ccc2c(Cc3ccc(/C=C/C(=O)c4cc(NC(C)=O)ccc4O)cc3)c3[n+](cc2c1OC)CCc1cc2c(cc1-3)OCO2 [Compound 24]	µM	=	25
COc1ccc2c(Cc3ccc(S(N)(=O)=O)cc3)c3[n+](cc2c1OC)CCc1cc2c(cc1-3)OCO2 [Compound 10, 13-(4-Sulfamoylbenzyl)Berberine]	µM	>	100
COc1ccc2c(Cc3ccc(-c4nc5ccccc5s4)cc3)c3[n+](cc2c1OC)CCc1cc2c(cc1-3)OCO2 [Compound 19]	µM	=	12.5
COc1ccc2c(c1OC)C(CC(C)=O)N1CCc3cc4c(cc3C1=C2)OCO4 (stereo not drawn) [Compound 3, 8-acetonyl dihydroberberine]	µM	=	100
